Just for reference, patent US20130101571A9 is where these values come from.

assay: 7AFZ production from FZ by purified NfsB proteins (HPLC); format: biochemical; details: anaerobic; FZ 64 μM, purified NfsB protein 10 μg, NADPH 2 mM, 2 h at 37° C.; mean±S.D. from three incubations
observable: 7AFZ formation (ng)
Give the number; ng is assumed, so skip it.

What value of 7AFZ formation has been reported for the following molecule? N71S (protein) MDIISVALKRHSTKAFDASKKLTPEQAEQIKTLLQYSPSSTNSQPWHFIVASTEEGKARVAKSAAGNYVFSERKMLDASHVVVFCAKTAMDDVWLKLVVDQEDADGRFATPEAKAANDKGRKFFADMHRKDLHDDAEWMAKQVYLNVGNFLLGVAALGLDAVPIEGFDAAILDAEFGLKEKGYTSLVVVPVGHHSVEDFNATLPKSRLPQNITLTEV
126

What value of 7AFZ formation has been reported for the following molecule? F124W (protein) MDIISVALKRHSTKAFDASKKLTPEQAEQIKTLLQYSPSSTNSQPWHFIVASTEEGKARVAKSAAGNYVFNERKMLDASHVVVFCAKTAMDDVWLKLVVDQEDADGRFATPEAKAANDKGRKFWADMHRKDLHDDAEWMAKQVYLNVGNFLLGVAALGLDAVPIEGFDAAILDAEFGLKEKGYTSLVVVPVGHHSVEDFNATLPKSRLPQNITLTEV
141.88

What value of 7AFZ formation has been reported for the following molecule? N71S/F124W: Double mutant N71S/F124W of E. coli type I nitroreductase NfsB (protein) MDIISVALKRHSTKAFDASKKLTPEQAEQIKTLLQYSPSSTNSQPWHFIVASTEEGKARVAKSAAGNYVFSERKMLDASHVVVFCAKTAMDDVWLKLVVDQEDADGRFATPEAKAANDKGRKFWADMHRKDLHDDAEWMAKQVYLNVGNFLLGVAALGLDAVPIEGFDAAILDAEFGLKEKGYTSLVVVPVGHHSVEDFNATLPKSRLPQNITLTEV
290.52

What value of 7AFZ formation has been reported for the following molecule? Wild type: Wild-type E. coli type I nitroreductase NfsB (NP-415110; SEQ ID NO:1), His-tagged recombinant protein (protein, His tag; E. coli) MDIISVALKRHSTKAFDASKKLTPEQAEQIKTLLQYSPSSTNSQPWHFIVASTEEGKARVAKSAAGNYVFNERKMLDASHVVVFCAKTAMDDVWLKLVVDQEDADGRFATPEAKAANDKGRKFFADMHRKDLHDDAEWMAKQVYLNVGNFLLGVAALGLDAVPIEGFDAAILDAEFGLKEKGYTSLVVVPVGHHSVEDFNATLPKSRLPQNITLTEV
51.85
